Consider the following molecules and their measured Residual activity readings.
Tested on: HPPD polypeptides (wild-type SEQ ID NO:1 and mutants)
RUN CONDITIONS: in the presence of Cmpd. 2, 15 μM inhibitor, high substrate concentration; kapp normalized to kapp without inhibitor

MOLECULE | Residual activity
21 (protein, mutant HPPD polypeptide) MADLYENPMGLMGFEFIEFASPTPGTLEPIFEIMGFTKVATHRSKNVHLYRQGEINLILNNEPNSIASYFAAEHGPSVCGMAFRVKDSQKAYNRALELGAQPIHIDTGPMELNLPAIKGIGGAPLYLIDRFGEGSSIYDIDFVYLEGVERNPVGAGLKVIDHLTHNVYRGRMVYWANFYEKLFNFREARYFDIKGEYTGLTSKAMSAPDGMIRIPLNEESSKGAGQIEEFLMQFNGEGIQHVAFLTDDLVKTWDALKKIGMRFMTAPPDTYYEMLEGRLPDHGEPVDQLQARGILLDGSSVEGDKRLLLQIFSETLMGPVFFEFIQRKGDDGFGPHSFKALFESIERDQVRRGVLTAD | 73%

Read the next record carefully.
Entry 19 (protein, mutant HPPD polypeptide) MADLYENPMGLMGFEFIEFASPTPGTLEPIFEIMGFTKVATHRSKNVHLYRQGEINLILNNEPNSIASYFAAEHGPSVCGMAFRVKDSQKAYNRALELGAQPIHIDTGPMELNLPAIKGIGGAPLYLIDRFGEGSSIYDIDFVYLEGVERNPVGAGLKVIDHLTHNVYRGRMVYWANFYEKLFNFREARYFDIKGEYTGLTSKAMSAPDGMIRIPLNEESSKGAGQIEEFLMQFNGEGIQHVAFLTDDLVKTWDALKKIGMRFRTAPGDEYYEMLEGRLPDHGEPVDQLQARGILLDGSSVEGDKRLLLQIFSETLMGPVFFEFIQRKGHDGFGPDSFKVLFESVERDQVRRGVLTAD ; Residual activity = 92%
